This collection of values is drawn from patent US6355799B1.

System: upland rice (Oryza sp., var. Tebonnet, RICE)
Experiment: Pre-emerge test, crop safety
Type: in vivo
Details: pre-emerge, 63 g ai/ha, 14 days after application, scale 0-100
Lab note: anything with phytotoxicity rating RICE (crop damage) at or over 10 counts as true; the rest go in false.

{"COMPOUND": "COc1c(Cl)cc(F)c(-n2c(=O)cc(C(F)(F)F)n(N)c2=O)c1NC(=O)C=Cc1ccccc1", "CLASSIFICATION": "true"}
{"COMPOUND": "COc1c(Br)cc(F)c(-n2c(=O)cc(C(F)(F)F)n(C)c2=O)c1NC(=O)C=Cc1ccccc1 [2-175]", "CLASSIFICATION": "true"}
{"COMPOUND": "COc1c(Cl)cc(F)c(-n2c(=O)cc(C(F)(F)F)n(N)c2=O)c1NC(=O)COCc1ccccc1", "CLASSIFICATION": "true"}
{"COMPOUND": "COc1c(Cl)cc(F)c(-n2c(=O)cc(C(F)(F)F)n(C)c2=O)c1NC(=O)c1ccc2ccccc2c1OC", "CLASSIFICATION": "false"}
{"COMPOUND": "COc1c(Cl)cc(F)c(-n2c(=O)cc(C(F)(F)F)n(C)c2=O)c1NC(=O)c1ccc2c(C#N)cccc2c1", "CLASSIFICATION": "false"}
{"COMPOUND": "Cc1c(Cl)cc(F)c(-n2c(=O)cc(C(F)(F)F)n(C)c2=O)c1NC(=O)C=Cc1ccccc1", "CLASSIFICATION": "true"}
{"COMPOUND": "COc1c(Cl)cc(F)c(-n2c(=O)cc(C(F)(F)F)n(C)c2=O)c1NC(=O)COc1ccc(F)cc1", "CLASSIFICATION": "true"}
{"COMPOUND": "COc1c(Cl)cc(F)c(-n2c(=O)cc(C(F)(F)F)n(C)c2=O)c1NC(=O)COc1ccc(Cl)cc1", "CLASSIFICATION": "false"}
{"COMPOUND": "COc1c(Cl)cc(F)c(-n2c(=O)cc(C(F)(F)F)n(N)c2=O)c1NC(=O)c1ccc2ccccc2c1", "CLASSIFICATION": "true"}

----------
Listing: phytotoxicity rating CHEAL of selected compounds
System: lambsquarters (Chenopodium album, CHEAL)
Experiment: Post-emerge test, greenhouse herbicide activity screening
Assay type: in vivo
Conditions: post-emerge, 250 g ai/ha, 14 days after application, rating scale 0-100
PROPERTY NAME: phytotoxicity rating CHEAL

{"COMPOUND": "COc1c(Cl)cc(F)c(-n2c(=O)cc(C(F)(F)F)n(C)c2=O)c1NC(=O)c1ccc(C#N)cc1 [2-67]", "PROPERTY NAME": "phytotoxicity rating CHEAL", "OBSERVED RESULT": 100}
{"COMPOUND": "COc1c(Cl)cc(F)c(-n2c(=O)cc(C(F)(F)F)n(C)c2=O)c1NC(=O)OCc1ccccn1 [4-36]", "PROPERTY NAME": "phytotoxicity rating CHEAL", "OBSERVED RESULT": 100}
{"COMPOUND": "COc1c(Cl)cc(F)c(-n2c(=O)cc(C(F)(F)F)n(C)c2=O)c1NC(=O)c1ccc(I)cc1 [2-66]", "PROPERTY NAME": "phytotoxicity rating CHEAL", "OBSERVED RESULT": 100}
{"COMPOUND": "COc1c(Cl)cc(F)c(-n2c(=O)cc(C(F)(F)F)n(C)c2=O)c1NC(=O)c1cnc2ccccc2n1 [2-105]", "PROPERTY NAME": "phytotoxicity rating CHEAL", "OBSERVED RESULT": 90}
{"COMPOUND": "COc1c(Cl)cc(F)c(-n2c(=O)cc(C(F)(F)F)n(C)c2=O)c1NC(=O)c1ccc(F)c(F)c1 [2-48]", "PROPERTY NAME": "phytotoxicity rating CHEAL", "OBSERVED RESULT": 100}
{"COMPOUND": "COc1c(Cl)cc(F)c(-n2c(=O)cc(C(F)(F)F)n(C)c2=O)c1NC(=O)OCc1ccc(C(C)C)cc1 [4-42]", "PROPERTY NAME": "phytotoxicity rating CHEAL", "OBSERVED RESULT": 90}
{"COMPOUND": "Cn1c(C(F)(F)F)cc(=O)n(-c2c(F)cc(Cl)c(OCC#N)c2NC(=O)c2ccc3ccccc3c2)c1=O [2-200]", "PROPERTY NAME": "phytotoxicity rating CHEAL", "OBSERVED RESULT": 100}
{"COMPOUND": "COc1c(Cl)cc(F)c(-n2c(=O)cc(C(F)(F)F)n(C)c2=O)c1NC(=O)c1cccc2ccccc12 [2-74]", "PROPERTY NAME": "phytotoxicity rating CHEAL", "OBSERVED RESULT": 70}

----------
Listing: phytotoxicity rating CORN (crop damage) of selected molecules
Test system: field corn (Zea mays L., var. Dekalb 535, CORN)
Test: Post-emerge test, crop safety
Format: in vivo
Conditions: post-emerge, 63 g ai/ha, 14 days after application, rating scale 0-100

{"MOLECULE": "COc1ccc(COC(=O)Nc2c(OC)c(Cl)cc(F)c2-n2c(=O)cc(C(F)(F)F)n(C)c2=O)cc1", "phytotoxicity rating CORN (crop damage)": 30}
{"MOLECULE": "COc1c(Cl)cc(F)c(-n2c(=O)cc(C(F)(F)F)n(C)c2=O)c1NC(=O)OCc1c(F)c(F)c(F)c(F)c1F", "phytotoxicity rating CORN (crop damage)": 90}
{"MOLECULE": "COc1c(Cl)cc(F)c(-n2c(=O)cc(C(F)(F)F)n(C)c2=O)c1NC(=O)OC(c1ccccc1)C1CC1 (stereo not drawn)", "phytotoxicity rating CORN (crop damage)": 10}

----------
Listing: phytotoxicity rating RICE of selected compounds
Test system: upland rice (Oryza sp., var. Tebonnet, RICE)
Experiment: Post-emerge test, crop safety
Format: in vivo
Details: post-emerge, 63 g ai/ha, 14 days after application, rating scale 0-100

{"SMILES NOTATION": "COc1c(Cl)cc(F)c(-n2c(=O)cc(C(F)(F)F)n(N)c2=O)c1NC(=O)c1ccc2ccccc2c1", "phytotoxicity rating RICE": 20}
{"SMILES NOTATION": "COc1c(Cl)cc(F)c(-n2c(=S)cc(C(F)(F)F)n(C)c2=O)c1NC(=S)c1ccc(F)cc1F", "phytotoxicity rating RICE": 10}
{"SMILES NOTATION": "COc1c(Cl)cc(F)c(-n2c(=O)cc(C(F)(F)F)n(C)c2=O)c1NC(=O)c1c(F)c(F)c(F)c(F)c1F", "phytotoxicity rating RICE": 0}
{"SMILES NOTATION": "COc1c(Cl)cc(F)c(-n2c(=O)cc(C(F)(F)F)n(C)c2=O)c1N(C(=O)c1ccc(C(F)(F)F)cc1)C(=O)c1ccc(C(F)(F)F)cc1", "phytotoxicity rating RICE": 65}
{"SMILES NOTATION": "CCOC(=O)C(=O)Nc1c(OC)c(Cl)cc(F)c1-n1c(=O)cc(C(F)(F)F)n(C)c1=O", "phytotoxicity rating RICE": 10}
{"SMILES NOTATION": "COc1c(Cl)cc(F)c(-n2c(=O)cc(C(F)(F)F)n(C)c2=O)c1NC(=O)c1cccc2ccccc12", "phytotoxicity rating RICE": 25}
{"SMILES NOTATION": "COc1c(Cl)cc(F)c(-n2c(=O)cc(C(F)(F)F)n(C)c2=O)c1NC(=O)c1ccc(Br)cc1", "phytotoxicity rating RICE": 60}
{"SMILES NOTATION": "COc1c(Cl)cc(F)c(-n2c(=O)cc(C(F)(F)F)n(C)c2=O)c1NC(=O)c1ccc2ccccc2c1", "phytotoxicity rating RICE": 70}
{"SMILES NOTATION": "COc1c(Cl)cc(F)c(-n2c(=O)cc(C(F)(F)F)n(C)c2=O)c1NC(=O)C(C)=Cc1ccccc1", "phytotoxicity rating RICE": 60}
{"SMILES NOTATION": "COc1c(Cl)cc(F)c(-n2c(=O)cc(C(F)(F)F)n(C)c2=O)c1NC(=O)c1cccc(F)c1F", "phytotoxicity rating RICE": 10}
{"SMILES NOTATION": "COc1c(Cl)cc(F)c(-n2c(=O)cc(C(F)(F)F)n(C)c2=O)c1NC(=O)c1c(F)cccc1F", "phytotoxicity rating RICE": 20}
{"SMILES NOTATION": "COc1c(Cl)cc(F)c(-n2c(=O)cc(C(F)(F)F)n(C)c2=O)c1NC(=O)c1cc([N+](=O)[O-])cc([N+](=O)[O-])c1", "phytotoxicity rating RICE": 0}
{"SMILES NOTATION": "COc1c(Cl)cc(F)c(-n2c(=O)cc(C(F)(F)F)n(C)c2=O)c1N(C(=O)c1ccc(Cl)nc1)C(=O)c1ccc(Cl)nc1", "phytotoxicity rating RICE": 45}
